Target: Aβ42 (Homo sapiens, UniProt P05067)
Sequence (P05067 672-713): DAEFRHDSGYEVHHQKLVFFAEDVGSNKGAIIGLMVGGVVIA
Assay: Th-T (thioflavin-T) assay of Aβ42 aggregation
Format: biochemical
Conditions: measurement M14; source data, Ab alone and No Ab as controls
Observed Property: Th-T assay plate reading, mean of three wells (Supplementary Fig. 47)

Compound | Value Observed
C=C1CCC2C(C)(CCC=C(C)C)C(O)CCC2(C)C1Cc1c(O)c(C)c(C)oc1=O (centres unmarked) [Compound 4] | 1.131
C=C1CCC2C3(C)CC(C=C(C)C)OC3CCC2(C)C1Cc1c(OC)oc(C)c(C)c1=O (centres unmarked) | 2.789
C=C1CC[C@@H]2[C@](C)(CC[C@H]3O[C@H](C=C(C)C)C[C@@]23C)[C@@H]1Cc1c(OC)oc(CO)c(C)c1=O | 2.679
C=C1CC[C@H]2[C@]3(C)C[C@H](C=C(C)C)O[C@H]3CC[C@]2(C)[C@@H]1Cc1c(OC)oc(CO)c(C)c1=O | 2.67
CC(C)=CCC/C(C)=C/CC/C(C)=C/CC/C(C)=C/Cc1c(O)c(C)c(C)oc1=O | 2.291
C=C1CCC2C(C)(CCC=C(C)C)C(O)CCC2(C)C1Cc1c(O)c(C)c(C)oc1=O (centres unmarked) [Compound 9, higginsianin B] | 0.6952
C=C1CCC2C(C)(CCC=C(C)C)C(O)CCC2(C)C1Cc1c(OC)oc(C)c(C)c1=O (centres unmarked) [Compound 15, viridoxin A hydrolysate] | 1.9845
C=C1CCC2C(C)(CCC=C(C)C)C(O)CCC2(C)C1Cc1c(OC)oc(C)c(C)c1=O (centres unmarked) [Compound 11] | 1.929

* * *

Target: Aβ42 (Homo sapiens)
Assay: Th-T (thioflavin-T) assay of Aβ42 aggregation
Type: biochemical
Settings: head suffix _50 (concentration 50); reading M67
Observed Property: Th-T fluorescence of Aβ42 (sheet Fig. 7a), mean of three wells

Compound | Study System | Value Observed
C=C1CCC2C(C)(CCC=C(C)C)C(O)CCC2(C)C1Cc1c(OC)oc(CO)c(C(=O)OC)c1=O (centres unmarked) [Compound 13] | Aβ42 (Homo sapiens) | 0.4748
C=C1CC[C@@H]2[C@](C)(CC[C@H]3O[C@H](C=C(C)C)C[C@@]23C)[C@@H]1Cc1c(OC)oc(CO)c(C)c1=O [Compound 20] | Aβ42 (Homo sapiens) | 2.131
C=C1CCC2C(C)(CCC=C(C)C)C(O)CCC2(C)C1Cc1c(OC)oc(CO)c(C)c1=O (centres unmarked) [Compound 12] | Aβ42 (Homo sapiens) | 1.458
C=C1CCC2C(C)(CCC=C(C)C)C(O)CCC2(C)C1Cc1c(OC)oc(C)c(C(=O)OC)c1=O (centres unmarked) [Compound 14] | Aβ42 (Homo sapiens) | 3.421
C=C1CC[C@@H]2[C@](C)(CC[C@H]3O[C@H](C=C(C)C)C[C@@]23C)[C@@H]1Cc1c(OC)oc(CO)c(C(=O)OC)c1=O [Compound 21] | Aβ42 (Homo sapiens) | 0.2439

* * *

Target: UniProtKB P05067
Assay: Th-T (thioflavin-T) assay of Aβ42 aggregation
Assay type: biochemical
Details: column suffix _20; reading M86
Observed Property: Fig. 7a Th-T reading, mean of three wells

Compound | Study System | Value Observed
C=C1CCC2C(C)(CCC=C(C)C)C(O)CCC2(C)C1Cc1c(OC)oc(C)c(C(=O)OC)c1=O (centres unmarked) [Compound 14] | UniProtKB P05067 | 1.882
C=C1CCC2C(C)(CCC=C(C)C)C(O)CCC2(C)C1Cc1c(OC)oc(CO)c(C)c1=O (centres unmarked) [Compound 12] | UniProtKB P05067 | 2.058
C=C1CCC2C(C)(CCC=C(C)C)C(O)CCC2(C)C1Cc1c(OC)oc(CO)c(C(=O)OC)c1=O (centres unmarked) [Compound 13] | UniProtKB P05067 | 1.037
C=C1CC[C@@H]2[C@](C)(CC[C@H]3O[C@H](C=C(C)C)C[C@@]23C)[C@@H]1Cc1c(OC)oc(CO)c(C(=O)OC)c1=O [Compound 21] | UniProtKB P05067 | 0.5976
C=C1CC[C@@H]2[C@](C)(CC[C@H]3O[C@H](C=C(C)C)C[C@@]23C)[C@@H]1Cc1c(OC)oc(CO)c(C)c1=O [Compound 20] | UniProtKB P05067 | 3.29

* * *

Entries and their Th-T fluorescence of Aβ42 with compound, mean of three wells (Fig. 7a source data) values follow.
Target: Aβ42 (Homo sapiens)
Assay: Th-T (thioflavin-T) assay of Aβ42 aggregation
Type: biochemical
Settings: concentration 10, unit not given; time-course reading M137
Observed Property: Th-T fluorescence of Aβ42 with compound, mean of three wells (Fig. 7a source data)

Compound | Study System | Value Observed
C=C1CCC2C(C)(CCC=C(C)C)C(O)CCC2(C)C1Cc1c(OC)oc(C)c(C(=O)OC)c1=O (centres unmarked) | Aβ42 (Homo sapiens) | 2.902
C=C1CCC2C(C)(CCC=C(C)C)C(O)CCC2(C)C1Cc1c(OC)oc(CO)c(C(=O)OC)c1=O (centres unmarked) | Aβ42 (Homo sapiens) | 1.53
C=C1CCC2C(C)(CCC=C(C)C)C(O)CCC2(C)C1Cc1c(OC)oc(CO)c(C)c1=O (centres unmarked) | Aβ42 (Homo sapiens) | 2.294
C=C1CC[C@@H]2[C@](C)(CC[C@H]3O[C@H](C=C(C)C)C[C@@]23C)[C@@H]1Cc1c(OC)oc(CO)c(C(=O)OC)c1=O | Aβ42 (Homo sapiens) | 1.7043
C=C1CC[C@@H]2[C@](C)(CC[C@H]3O[C@H](C=C(C)C)C[C@@]23C)[C@@H]1Cc1c(OC)oc(CO)c(C)c1=O | Aβ42 (Homo sapiens) | 3.15

* * *

Target: Aβ42 (Homo sapiens, UniProt P05067)
Assay: Th-T (thioflavin-T) assay of Aβ42 aggregation
Type: biochemical
Details: column suffix _50; reading M86
Observed Property: Fig. 7a Th-T reading, mean of three wells

Molecule | Study System | Value Observed
C=C1CC[C@@H]2[C@](C)(CC[C@H]3O[C@H](C=C(C)C)C[C@@]23C)[C@@H]1Cc1c(OC)oc(CO)c(C(=O)OC)c1=O | Aβ42 (Homo sapiens, UniProt P05067) | 0.3921
C=C1CCC2C(C)(CCC=C(C)C)C(O)CCC2(C)C1Cc1c(OC)oc(CO)c(C)c1=O (centres unmarked) | Aβ42 (Homo sapiens, UniProt P05067) | 1.399
C=C1CCC2C(C)(CCC=C(C)C)C(O)CCC2(C)C1Cc1c(OC)oc(CO)c(C(=O)OC)c1=O (centres unmarked) | Aβ42 (Homo sapiens, UniProt P05067) | 0.4692
C=C1CCC2C(C)(CCC=C(C)C)C(O)CCC2(C)C1Cc1c(OC)oc(C)c(C(=O)OC)c1=O (centres unmarked) | Aβ42 (Homo sapiens, UniProt P05067) | 1.994
C=C1CC[C@@H]2[C@](C)(CC[C@H]3O[C@H](C=C(C)C)C[C@@]23C)[C@@H]1Cc1c(OC)oc(CO)c(C)c1=O | Aβ42 (Homo sapiens, UniProt P05067) | 2.077

* * *

Target: Aβ42 (Homo sapiens)
Assay: Th-T (thioflavin-T) assay of Aβ42 aggregation
Assay type: biochemical
Settings: column suffix _50; reading M96
Observed Property: Fig. 7a Th-T reading, mean of three wells

Molecule | Value Observed
C=C1CCC2C(C)(CCC=C(C)C)C(O)CCC2(C)C1Cc1c(OC)oc(C)c(C(=O)OC)c1=O (centres unmarked) | 1.587
C=C1CCC2C(C)(CCC=C(C)C)C(O)CCC2(C)C1Cc1c(OC)oc(CO)c(C(=O)OC)c1=O (centres unmarked) | 0.4744
C=C1CC[C@@H]2[C@](C)(CC[C@H]3O[C@H](C=C(C)C)C[C@@]23C)[C@@H]1Cc1c(OC)oc(CO)c(C(=O)OC)c1=O | 0.4583
C=C1CCC2C(C)(CCC=C(C)C)C(O)CCC2(C)C1Cc1c(OC)oc(CO)c(C)c1=O (centres unmarked) | 1.4015
C=C1CC[C@@H]2[C@](C)(CC[C@H]3O[C@H](C=C(C)C)C[C@@]23C)[C@@H]1Cc1c(OC)oc(CO)c(C)c1=O | 2.087

* * *

Target: Aβ42 (Homo sapiens, UniProt P05067)
Experiment: Th-T (thioflavin-T) assay of Aβ42 aggregation
Format: biochemical
Conditions: compound at 50; reading M57 of time course
Simple rule here: Th-T fluorescence, mean of three wells less than 1 is yes (1), otherwise no (0).

Compound | Study System | Discrete Label
C=C1CCC2C(C)(CCC=C(C)C)C(O)CCC2(C)C1Cc1c(OC)oc(CO)c(C(=O)OC)c1=O (centres unmarked) [Compound 13] | Aβ42 (Homo sapiens, UniProt P05067) | yes (1)
C=C1CCC2C(C)(CCC=C(C)C)C(O)CCC2(C)C1Cc1c(OC)oc(C)c(C(=O)OC)c1=O (centres unmarked) [Compound 14] | Aβ42 (Homo sapiens, UniProt P05067) | no (0)
C=C1CC[C@@H]2[C@](C)(CC[C@H]3O[C@H](C=C(C)C)C[C@@]23C)[C@@H]1Cc1c(OC)oc(CO)c(C(=O)OC)c1=O [Compound 21] | Aβ42 (Homo sapiens, UniProt P05067) | yes (1)
C=C1CC[C@@H]2[C@](C)(CC[C@H]3O[C@H](C=C(C)C)C[C@@]23C)[C@@H]1Cc1c(OC)oc(CO)c(C)c1=O [Compound 20] | Aβ42 (Homo sapiens, UniProt P05067) | no (0)
C=C1CCC2C(C)(CCC=C(C)C)C(O)CCC2(C)C1Cc1c(OC)oc(CO)c(C)c1=O (centres unmarked) [Compound 12] | Aβ42 (Homo sapiens, UniProt P05067) | no (0)
